# experiment.description: Acute toxicity in rats
# experimental.context: rat, in vivo, ip; intraperitoneal administration to rats; read-out: survival dose values (LD50)

structure.string: C[N+](C)(CC(=O)Nc1ccccc1)CC(=O)Nc1ccccc1.[Cl-]
LD50, mg/kg: 150

###

# experiment.description: Acute toxicity in mice
# experimental.context: mouse, in vivo, sc; subcutaneous injection to mice; read-out: survival dose values (LD50)
test.readout: LD50 (mg/kg)

structure.string: C[N+](C)(CC(=O)Nc1ccccc1)CC(=O)Nc1ccccc1.[Cl-]
measured.result: 264

###

# experiment.description: Acute toxicity in mice
# experimental.context: mouse, in vivo, ip; intraperitoneal administration to mice; read-out: survival dose values (LD50)
test.readout: LD50 (mg/kg)

compound: C[N+](C)(CC(=O)Nc1ccccc1)CC(=O)Nc1ccccc1.[Cl-] [Compound I]
test.readout: LD50
result.units: mg/kg
measured.result: 125

These measurements were taken from patent EP1009397B1.
